B1: tRNA (parent)
chain: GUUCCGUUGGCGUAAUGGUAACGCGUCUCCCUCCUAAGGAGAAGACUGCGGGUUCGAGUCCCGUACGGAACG

Variants of: B1
Experiment: yeast fitness relative to wild type (ratio to wild type); higher = fitter; tRNA-Arg(CCU), competitive growth, 37 C, YPD
This sample holds only a part of the variants without activity.
Hi, to clarify the labels: Yes covers yeast fitness from 0.6 upward, No covers anything below 0.6.

>>> cat("A14C C61U C66G")
"No"
>>> cat("C34G C62G C66G A69C")
"No"
>>> cat("C24A C33A C49U A69U")
"No"
>>> cat("A15C C27A G58A A70U")
"No"
>>> cat("A14U A15G C31A C34G C61U")
"No"
>>> cat("U13G U26G G52A")
"No"
>>> cat("C22G C30A C49A A69U")
"No"
>>> cat("G18C C27G G48A C66G G67A")
"No"
>>> cat("C49G A70U")
"Yes"
>>> cat("U2C A20U C62U")
"No"
>>> cat("A21C C22G")
"No"
>>> cat("C29G C61U C66A")
"No"
>>> cat("C27U U28A A37G A57C G58C")
"Yes"
>>> cat("G6C U16G A20C G25A A43U G50A C55U")
"No"
>>> cat("C5U G44C C61U")
"Yes"
>>> cat("C5U A42G G51C G56A")
"Yes"
>>> cat("U26C C30U U47A")
"Yes"
>>> cat("C5U C22A C29U G51C")
"No"
>>> cat("A21G C22G U53C C55G")
"Yes"
>>> cat("C22U C27G A37G A42C")
"No"
>>> cat("A14U C24G G41A G44A U53A A57G C66U")
"No"
>>> cat("U3A A20U A42C C55G")
"No"
>>> cat("A45U C62G A65G")
"Yes"
>>> cat("C11A C24U G67C A70G")
"No"
>>> cat("U8C A40G C55U A65C")
"No"
>>> cat("G12C U32G A40U A57U A65U")
"No"
>>> cat("U47G C62U")
"Yes"
>>> cat("C27G G41A G67U")
"Yes"
>>> cat("A21G G39C C46G")
"Yes"
>>> cat("C5U U7G C30U G51C C61A")
"No"
>>> cat("G6C G58C")
"Yes"
>>> cat("A21U C27G U28C C30U U53G C61A")
"Yes"
>>> cat("C34G G48C")
"No"
>>> cat("G10A C30U G50A A70U")
"No"
>>> cat("G17A G23C C33G C46A C66A")
"No"
>>> cat("U2G U3A C5U U7C U8C A20C U35C A37U A57C")
"No"
>>> cat("G6A G23C G41C C49U")
"No"
>>> cat("C5G A21G U26C C49A U54C A65G")
"No"
>>> cat("C27G G39A C66G")
"Yes"
>>> cat("U8C C31G A45G C62G")
"No"
>>> cat("G6C C33U")
"Yes"
